Task for the reader: assign each of the following molecules its reported inhibition at 10 µM.
Molecular target: human SGLT1 (Homo sapiens, UniProt P13866)
Construct: expressed in transfected cells; pcDNA vector)
Sequence (P13866 whole entry): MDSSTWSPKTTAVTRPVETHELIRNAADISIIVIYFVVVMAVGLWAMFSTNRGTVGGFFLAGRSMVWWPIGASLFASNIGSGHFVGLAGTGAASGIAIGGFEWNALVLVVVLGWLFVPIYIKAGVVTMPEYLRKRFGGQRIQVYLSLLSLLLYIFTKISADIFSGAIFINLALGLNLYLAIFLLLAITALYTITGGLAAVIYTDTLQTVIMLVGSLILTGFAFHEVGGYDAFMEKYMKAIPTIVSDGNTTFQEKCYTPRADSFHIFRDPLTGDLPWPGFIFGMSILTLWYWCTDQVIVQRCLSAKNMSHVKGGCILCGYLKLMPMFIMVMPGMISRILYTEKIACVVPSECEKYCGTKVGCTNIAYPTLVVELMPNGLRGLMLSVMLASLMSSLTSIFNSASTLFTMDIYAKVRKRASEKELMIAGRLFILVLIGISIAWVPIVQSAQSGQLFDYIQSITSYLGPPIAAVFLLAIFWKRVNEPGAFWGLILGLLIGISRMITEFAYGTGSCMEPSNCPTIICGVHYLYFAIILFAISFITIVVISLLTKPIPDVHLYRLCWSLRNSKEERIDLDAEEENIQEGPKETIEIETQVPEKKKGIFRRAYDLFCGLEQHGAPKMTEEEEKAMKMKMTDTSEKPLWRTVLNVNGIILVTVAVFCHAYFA
Assay: Cell-based assay for sodium-dependent glucose transport (14C-AMG uptake), CHOK-SGLT1
Conditions: @10 μM; CHO-K1 cells stably expressing human SGLT1; Na-dependent 14C-AMG uptake; read-out: CHOK-SGLT1 % Inh. @10 μM
Numbers only, in %.

Solved entries:
> print(dat)
                                   molecule  numeric.readout
1  OCC1OC(Oc2cccc3ncn(CCc4ccc5ccccc5c4)c23)C(O)C(O)C1O (stereo not shown) [Example 2]               55
2  COc1ccc(CCn2nnc3cccc(OC4OC(CO)C(O)C(O)C4O)c32)cc1 (stereo not shown) [Example 9]               40
3  CCc1ccc(Cn2c(=O)[nH]c3cccc(OC4OC(CO)C(O)C(O)C4O)c32)cc1 (stereo not shown) [Example 3]                1

Attention now shifts to the item below.
INPUT: For COc1ccc(CCn2cnc3cccc(OC4OC(CO)C(O)C(O)C4O)c32)cc1 (stereo not shown) [Example 5] , what is its reported inhibition at 10 µM?
OUTPUT: 61
